System: UACC-62 melanoma
Test: NCI-60 one-dose screen, 48 h
Settings: 10 µM unless noted
This is part of a sample that, as a whole, favours compounds with a hit. Of some 83,000 tested, about 20% had one in any assay. The source made the active and inactive calls. Rule for the calls: active = growth percent below 10; inactive = the rest.
Result category, one only: YES for active, NO for inactive

Problem: Recorded test outcome, item Cc1cc(O)cc(-c2nn(C)cc2-c2cc(N3CCOCC3)nc(-c3cccnc3)n2)c1
Result: NO

Problem: Recorded test outcome, item COc1cc2c3c(c4c5ccccc5[nH]c4c2c(OC)c1OC)C(=O)N(CCN1CCCCC1)C3=O
Result: NO

Problem: Recorded test outcome, item COc1ccc(-c2nc(SCC(=O)Nc3nc4ccc(C)cc4s3)[nH]c(=O)c2C#N)cc1OC
Result: NO

Problem: Recorded test outcome, item COc1ccc(Oc2ccc(/C=C/C(=O)c3ccc(OC)c(OC)c3)cc2)cc1
Result: NO

Problem: Recorded test outcome, item O=Nc1ccc(NC(=O)Nc2ccc([N+](=O)[O-])cc2)cc1
Result: NO

Problem: Recorded test outcome, item CC(C)NS(=O)(=O)/N=C1\NC(=O)NC1=C(Cl)Cl
Result: NO

Problem: Recorded test outcome, item COc1ccc2cc(C(=O)N3CCC([C@@H](C)C(=O)NCc4ccc5c(c4)OCO5)CC3)[nH]c2c1
Result: NO

Problem: Recorded test outcome, item Nc1nc2ccccc2c2c(=O)c3cc(Cl)ccc3sc12
Result: NO

Problem: Recorded test outcome, item CCCCCc1ccc(S(=O)(=O)Nc2ccc3nc(N)oc3c2)cc1
Result: NO

Problem: Recorded test outcome, item Cc1[nH]n(-c2cccc(Cl)c2)c(=O)c1/C=C1\C=c2ccccc2=CC1=O
Result: NO

Problem: Recorded test outcome, item COC1C(O)CC(OC2CC(OC3CC(O[C@@H]4C(=O)c5c(cc6cc(OC7CC(OC8CC(O)C(O)C(C)O8)C(O)C(C)O7)c(C)c(O)c6c5O)CC4[C@H](OC)C(=O)O)OC(C)C3O)OC(C)C2O)OC1C (stereo not given in full)
Result: YES

Problem: Recorded test outcome, item COc1cc2c(c(OC)c1OC)C(=O)CC(c1cccc(C(=O)Nc3ccc(C#N)cc3)c1)O2 (stereo not given)
Result: NO

Problem: Recorded test outcome, item Cc1ccc2c(/C=C/C(=O)c3cc(CN4CCOCC4)c(O)c4nc(C)ccc34)cc(CN3CCOCC3)c(O)c2n1
Result: YES

Problem: Recorded test outcome, item CN1C(=O)/C(=C/c2ccc(C(=O)Nc3ncc(Cc4cc(Cl)ccc4Cl)s3)cc2)SC1=S
Result: NO

Problem: Recorded test outcome, item CCN(CC)CCOc1ccc2ccc(=O)oc2c1
Result: NO

Problem: Recorded test outcome, item COc1cc(/C=C/C(=O)c2cccc(-n3cc(-c4ccc(Cl)cc4)[nH]c3=O)c2)ccc1O
Result: NO

Data origin, for the record: PubChem BioAssay (NCI)
